Each record here notes measured residual activity.
assayedTarget: EPHA7 (human) (UniProt Q15375)
Sequence (Q15375 whole entry, looked up): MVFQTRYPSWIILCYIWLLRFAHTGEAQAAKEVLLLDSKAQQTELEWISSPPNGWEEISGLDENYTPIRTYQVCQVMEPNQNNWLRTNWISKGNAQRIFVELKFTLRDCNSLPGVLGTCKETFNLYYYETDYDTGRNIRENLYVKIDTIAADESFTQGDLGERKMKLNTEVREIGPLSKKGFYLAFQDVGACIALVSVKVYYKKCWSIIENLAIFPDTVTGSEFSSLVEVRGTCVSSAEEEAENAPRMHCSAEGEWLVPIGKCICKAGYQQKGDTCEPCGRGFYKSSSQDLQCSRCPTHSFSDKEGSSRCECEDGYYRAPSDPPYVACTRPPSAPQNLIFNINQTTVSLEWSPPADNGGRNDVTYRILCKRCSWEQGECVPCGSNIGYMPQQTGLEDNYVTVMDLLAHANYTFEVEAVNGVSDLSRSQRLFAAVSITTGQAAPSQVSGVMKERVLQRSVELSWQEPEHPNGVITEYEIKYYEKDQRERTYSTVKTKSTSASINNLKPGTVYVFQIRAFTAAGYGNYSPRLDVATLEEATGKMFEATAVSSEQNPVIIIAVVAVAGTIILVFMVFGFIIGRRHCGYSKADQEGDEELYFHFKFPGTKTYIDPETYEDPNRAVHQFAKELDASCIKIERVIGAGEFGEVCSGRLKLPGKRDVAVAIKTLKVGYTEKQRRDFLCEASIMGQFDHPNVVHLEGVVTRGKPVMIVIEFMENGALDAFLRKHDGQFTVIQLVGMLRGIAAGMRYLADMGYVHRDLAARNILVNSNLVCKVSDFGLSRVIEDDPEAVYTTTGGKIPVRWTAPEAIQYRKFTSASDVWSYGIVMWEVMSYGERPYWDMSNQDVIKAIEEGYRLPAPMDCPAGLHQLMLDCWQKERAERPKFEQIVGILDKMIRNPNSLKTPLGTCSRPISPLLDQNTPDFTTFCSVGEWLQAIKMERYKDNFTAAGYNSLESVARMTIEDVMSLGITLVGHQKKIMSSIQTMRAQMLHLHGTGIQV
experimentalDetails: radiometric filter-binding kinase assay, Kinase HotSpot
conditions: compound 0.5 µM; ATP 10 µM
endpointName: residual activity (%)

- CC(=O)O/N=C1\C(=C2\C(=O)Nc3cc(Br)ccc32)Nc2ccccc21: 97.9
- CC(C)[C@H](CO)Nc1nc(Nc2cc(N)cc(Cl)c2)c2ncn(C(C)C)c2n1: 80.2
- Oc1ccc(Nc2nc(-c3ccc(Cl)cc3)cs2)cc1: 97.7
- Nc1nnc2[nH]c3ccccc3nc1-2: 95.3
- CC(C)c1nn(-c2c(Cl)cccc2Cl)c2nc(Cc3ccc(OCCO)cc3)nc(O)c12: 97.9
- COc1cc2ncnc(N3CCN(C(=O)Nc4ccc(Oc5ccccc5)cc4)CC3)c2cc1OC: 96.8

###

Each record here notes measured residual activity.
assayedTarget: MAPK3 (human)
experimentalDetails: radiometric filter-binding kinase assay, Kinase HotSpot
conditions: compound 0.5 µM; ATP 10 µM
endpointName: residual activity (%)

* CC(C)[C@H](CO)Nc1nc(Nc2cc(N)cc(Cl)c2)c2ncn(C(C)C)c2n1 | 106
* O=C1NC(=O)/C(=C\c2ccc3nccnc3c2)S1 | 87.8
* CC(C)c1nn(-c2c(Cl)cccc2Cl)c2nc(Cc3ccc(OCCO)cc3)nc(O)c12 | 101
* O=C1NC(=O)C(c2c[nH]c3ccccc23)=C1c1c[nH]c2ccccc12 | 105
* O=C(Nc1cccc(Nc2cc(Nc3cccc(C(F)(F)F)c3)ncn2)c1)C1CC1 | 101
* COc1cc2ncc(-c3ccccc3)nc2cc1OC | 97.6
* CN(C)C[C@H]1CCn2c(c(C3=C(c4cn(C)c5ccccc45)C(=O)NC3=O)c3ccccc32)C1 | 102
* O=C1NC(=O)C(c2cn(CCCO)c3ncccc23)=C1c1cnccn1 | 94.5
* CN([C@@H](Cc1ccc(OS(=O)(=O)c2cccc3cnccc23)cc1)C(=O)N1CCN(c2ccccc2)CC1)S(=O)(=O)c1cccc2cnccc12 | 90.6
* O=C1Nc2ccccc2/C1=C1/Nc2ccccc2/C1=N\OCCC(O)CO (configuration not stated) | 98.7
* Nc1nccc(-c2c(-c3ccc(F)cc3)ncn2C2CCNCC2)n1 | 100
* O=C(CCCc1ccc(-c2ccccc2F)cc1)Nc1ccc(O)cc1 | 132
* Cc1nc2cc3nc(-c4cccs4)cnc3cc2n1C | 117
* Cn1nc2c3c(cccc31)C(=O)c1ccccc1-2 | 98.9
* Cn1cnc2cc3c(Nc4cccc(Br)c4)ncnc3cc21 | 109
* O=C1Cc2c([nH]c3ccc(Br)cc23)-c2ccccc2N1 | 100
* O=C(O)/C=C/c1cc(Br)c(Br)c(Br)c1Br | 110
* CCn1cnc2c(Nc3cccc(Cl)c3)nc(N[C@@H]3CCCC[C@@H]3N)nc21 | 108
* COc1ccc(OC)c2c(=S)c3ccccc3[nH]c12 | 103
* Oc1ccc(Nc2nc(-c3ccc(Cl)cc3)cs2)cc1 | 103
* CC(=O)O/N=C1\C(=C2\C(=O)Nc3cc(Br)ccc32)Nc2ccccc21 | 93.7
* COc1cc2ncnc(N3CCN(C(=O)Nc4ccc(Oc5ccccc5)cc4)CC3)c2cc1OC | 102

###

assayedTarget: CSNK1A1 (human) (UniProt P48729)
Sequence (P48729 whole entry, looked up): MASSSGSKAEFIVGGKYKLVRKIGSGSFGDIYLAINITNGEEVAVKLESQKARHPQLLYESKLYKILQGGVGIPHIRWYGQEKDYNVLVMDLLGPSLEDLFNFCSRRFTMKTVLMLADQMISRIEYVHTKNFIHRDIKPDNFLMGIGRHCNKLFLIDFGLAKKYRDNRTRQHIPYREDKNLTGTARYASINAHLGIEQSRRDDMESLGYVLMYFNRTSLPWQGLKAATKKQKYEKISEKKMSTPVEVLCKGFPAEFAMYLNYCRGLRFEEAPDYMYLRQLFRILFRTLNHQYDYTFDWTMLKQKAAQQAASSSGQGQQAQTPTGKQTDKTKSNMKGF
experimentalDetails: radiometric filter-binding kinase assay, Kinase HotSpot
conditions: compound 0.5 µM; ATP 10 µM
Each record here notes measured residual activity.
endpointName: residual activity (%)

* Oc1ccc(Nc2nc(-c3ccc(Cl)cc3)cs2)cc1 | 96.4
* CC(C)c1nn(-c2c(Cl)cccc2Cl)c2nc(Cc3ccc(OCCO)cc3)nc(O)c12 | 99
* O=C1NC(=O)C(c2c[nH]c3ccccc23)=C1c1c[nH]c2ccccc12 | 98.4
* COc1cc2ncnc(N3CCN(C(=O)Nc4ccc(Oc5ccccc5)cc4)CC3)c2cc1OC | 108
* O=C(O)/C=C/c1cc(Br)c(Br)c(Br)c1Br | 79.3
* Cn1nc2c3c(cccc31)C(=O)c1ccccc1-2 | 47.8
